experiment: Toxicokinetics after intravenous injection in mice
Format: in vivo
measurement_setup: mouse; male ICR mice, iv bolus (tail vein) 0.8 mg/kg in water, plasma, LC-HRMS, non-compartmental, mean ± SD, n = 7
property_label: C0 (ng/mL)
Give your result in ng/mL as a bare value.

C0 recorded for this molecule, `CC[C@H](C)[C@@H]1NC(=O)CNC(=O)[C@@H]2Cc3c([nH]c4cc(O)ccc34)[S@+]([O-])C[C@H](NC(=O)CNC1=O)C(=O)N[C@@H](CC(=O)O)C(=O)N1C[C@H](O)C[C@H]1C(=O)N[C@@H]([C@@H](C)[C@@H](O)CO)C(=O)N2` , is 3250

* * *

experiment: Toxicokinetics after oral administration in mice
Format: in vivo
measurement_setup: mouse; male ICR mice, oral gavage 2 mg/kg, plasma, LC-HRMS, non-compartmental, mean ± SD, n = 7
property_label: AUC(0-inf) (µg·h/mL)
Give your result in µg·h/mL as a bare value.

AUC(0-inf) recorded for this compound, `CC[C@H](C)[C@@H]1NC(=O)CNC(=O)[C@@H]2Cc3c([nH]c4cc(O)ccc34)[S@+]([O-])C[C@H](NC(=O)CNC1=O)C(=O)N[C@@H](CC(=O)O)C(=O)N1C[C@H](O)C[C@H]1C(=O)N[C@@H]([C@@H](C)[C@@H](O)CO)C(=O)N2` , is 0.191

* * *

experiment: in vivo
Assay type: in vivo
measurement_setup: mouse, in vivo; male ICR mice, po 10 mg/kg, plasma, sampled 0.5, 1, 3, 6 h, LC-HRMS, mean ± SD, n = 4; read-out: AUClast, plasma (converted)
property_label: AUC(0-t) (ng·h/mL)
Give your result in ng·h/mL as a bare value.

AUC(0-t) recorded for this molecule, `CC[C@H](C)[C@@H]1NC(=O)CNC(=O)[C@@H]2Cc3c([nH]c4cc(O)ccc34)[S@+]([O-])C[C@H](NC(=O)CNC1=O)C(=O)N[C@@H](CC(=O)O)C(=O)N1C[C@H](O)C[C@H]1C(=O)N[C@@H]([C@@H](C)[C@@H](O)CO)C(=O)N2` , is 394

* * *

experiment: Toxicokinetics after intravenous injection in mice
Assay type: in vivo
measurement_setup: mouse; male ICR mice, iv bolus 0.8 mg/kg, plasma elimination half-life, mean ± SD, n = 7
property_label: half-life
Remember to quote the unit after the number.

half-life recorded for this molecule, `CC[C@H](C)[C@@H]1NC(=O)CNC(=O)[C@@H]2Cc3c([nH]c4cc(O)ccc34)[S@+]([O-])C[C@H](NC(=O)CNC1=O)C(=O)N[C@@H](CC(=O)O)C(=O)N1C[C@H](O)C[C@H]1C(=O)N[C@@H]([C@@H](C)[C@@H](O)CO)C(=O)N2` , is 33.6 min

* * *

experiment: Toxicokinetics after oral administration in mice
Format: in vivo
measurement_setup: mouse; male ICR mice, fasted, oral gavage 10 mg/kg in water, plasma, LC-HRMS, mean ± SD, n = 7
property_label: Cmax (ng/mL)
Give your result in ng/mL as a bare value.

Cmax recorded for this molecule, `CC[C@H](C)[C@@H]1NC(=O)CNC(=O)[C@@H]2Cc3c([nH]c4cc(O)ccc34)[S@+]([O-])C[C@H](NC(=O)CNC1=O)C(=O)N[C@@H](CC(=O)O)C(=O)N1C[C@H](O)C[C@H]1C(=O)N[C@@H]([C@@H](C)[C@@H](O)CO)C(=O)N2` , is 360

* * *

experiment: Toxicokinetics after oral administration in mice
Format: in vivo
measurement_setup: mouse; male ICR mice, fasted, oral gavage 5 mg/kg in water, plasma, LC-HRMS, mean ± SD, n = 9
property_label: Cmax (ng/mL)
Give your result in ng/mL as a bare value.

Cmax recorded for this molecule, CC[C@H](C)[C@@H]1NC(=O)CNC(=O)[C@@H]2Cc3c([nH]c4cc(O)ccc34)[S@+]([O-])C[C@H](NC(=O)CNC1=O)C(=O)N[C@@H](CC(=O)O)C(=O)N1C[C@H](O)C[C@H]1C(=O)N[C@@H]([C@@H](C)[C@@H](O)CO)C(=O)N2 [β-amanitin] , is 140

* * *

experiment: Toxicokinetics after oral administration in mice
Format: in vivo
measurement_setup: mouse, plasma; male ICR mice, oral gavage 10 mg/kg, median with range in parentheses, n = 7
property_label: Tmax (h)
Give your result in h as a bare value.

Tmax recorded for this compound, `CC[C@H](C)[C@@H]1NC(=O)CNC(=O)[C@@H]2Cc3c([nH]c4cc(O)ccc34)[S@+]([O-])C[C@H](NC(=O)CNC1=O)C(=O)N[C@@H](CC(=O)O)C(=O)N1C[C@H](O)C[C@H]1C(=O)N[C@@H]([C@@H](C)[C@@H](O)CO)C(=O)N2` , is 1

* * *

experiment: Toxicokinetics after intravenous injection in mice
Assay type: in vivo
measurement_setup: mouse, plasma; male ICR mice, iv bolus 0.2 mg/kg, CLxMRT, mean ± SD, n = 8; read-out: Vss
property_label: Vd (L/kg)
Give your result in L/kg as a bare value.

Vd recorded for this compound, `CC[C@H](C)[C@@H]1NC(=O)CNC(=O)[C@@H]2Cc3c([nH]c4cc(O)ccc34)[S@+]([O-])C[C@H](NC(=O)CNC1=O)C(=O)N[C@@H](CC(=O)O)C(=O)N1C[C@H](O)C[C@H]1C(=O)N[C@@H]([C@@H](C)[C@@H](O)CO)C(=O)N2` , is 0.359

* * *

experiment: Toxicokinetics after oral administration in mice
Format: in vivo
measurement_setup: mouse, plasma; male ICR mice, oral gavage 5 mg/kg, median with range in parentheses, n = 9
property_label: Tmax (h)
Give your result in h as a bare value.

Tmax recorded for this molecule, `CC[C@H](C)[C@@H]1NC(=O)CNC(=O)[C@@H]2Cc3c([nH]c4cc(O)ccc34)[S@+]([O-])C[C@H](NC(=O)CNC1=O)C(=O)N[C@@H](CC(=O)O)C(=O)N1C[C@H](O)C[C@H]1C(=O)N[C@@H]([C@@H](C)[C@@H](O)CO)C(=O)N2` , is 1.5

* * *

experiment: Toxicokinetics after intravenous injection in mice
Assay type: in vivo
measurement_setup: mouse; male ICR mice, iv bolus 0.2 mg/kg, plasma, LC-HRMS, non-compartmental, mean ± SD, n = 8
property_label: AUC(0-t) (ng·h/mL)
Give your result in ng·h/mL as a bare value.

AUC(0-t) recorded for this molecule, CC[C@H](C)[C@@H]1NC(=O)CNC(=O)[C@@H]2Cc3c([nH]c4cc(O)ccc34)[S@+]([O-])C[C@H](NC(=O)CNC1=O)C(=O)N[C@@H](CC(=O)O)C(=O)N1C[C@H](O)C[C@H]1C(=O)N[C@@H]([C@@H](C)[C@@H](O)CO)C(=O)N2 [β-amanitin] , is 222

These data points were gathered from paper PMC9030691.
